Test system: HEK293
Assay Procedure: cells
Type: functional
Condition Summary: Homo sapiens, ATCC CRL1573, HEK293; ASSAY_TEST Inhibition of Cell Viability; detection method Resazurin; Fluorescence (ex560/em590); MEDIA DMEM with 10% FBS; plate type 384well; TC; CORNING #3712; time 18 hr
Form field: CC50 (one value per entry).
Readout: CC50

Compound: COC1CC(C)C(OC)c2cc(O)cc(c2O)NC(=O)/C(C)=C/C=C\C(C)C(OC(N)=O)/C(C)=C\C(C)C1OC (stereo not given)
Readout: CC50
Result: 1.09 µM
--
Compound: O=[N+]([O-])c1ccc(/C=[N+](\[O-])CCO)o1
Readout: CC50
Result: > 10 µM
--
Compound: Sc1nc2cc(-c3ccccc3)ccc2o1
Readout: CC50
Result: > 10 µM
--
Compound: O=[N+]([O-])c1oc2ccc3ccccc3c2c1CCO
Readout: CC50
Result: 1.13 µM
--
Compound: Oc1ccc2ccccc2c1/N=N/c1nccs1
Readout: CC50
Result: > 10 µM
--
Compound: O=C(Nc1ccc(Nc2ccncc2)cc1)c1ccc(Nc2ccnc3ccc([N+](=O)[O-])cc23)cc1[N+](=O)[O-]
Readout: CC50
Result: > 10 µM
--
Compound: CCN(CC)c1ccc(C(=C2C=CC(=[N+](CC)CC)C=C2)c2ccc(N(CC)CC)cc2)cc1
Readout: CC50
Result: 1.47 µM
--
Compound: COC(=O)N1C2CCCCC2=NN(c2ccccc2)N1C(=O)OC (stereo not given)
Readout: CC50
Result: > 10 µM
--
Compound: CN(C)CCOc1ccc2c(c1)C(=O)/C(=C\c1ncc([N+](=O)[O-])n1C)C2
Readout: CC50
Result: 1.55 µM
--
Compound: N=C(N)NCCCS(=O)(=O)Nc1ccc(Nc2c3ccccc3nc3cc([N+](=O)[O-])ccc23)cc1
Readout: CC50
Result: > 10 µM
--
Compound: O=C(Nc1ccc(C2=NCCN2)cc1)c1ccc(Cl)c(C(=O)Nc2ccc(C3=NCCN3)cc2)c1
Readout: CC50
Result: > 10 µM
--
Compound: CSc1nc(C)c(Br)c(N2CC2)n1
Readout: CC50
Result: > 10 µM
--
Compound: O=C(Nc1ccc(Cl)c(Cl)c1)Nc1ccc([N+](=O)[O-])cn1
Readout: CC50
Result: > 10 µM
--
Compound: Cc1ccc(C=C2C(Cl)=C(Cl)C(Cl)=C2Cl)cc1
Readout: CC50
Result: > 10 µM
--
Compound: O=C(Nc1ccc(Nc2ccncc2)cc1)c1ccc(Nc2ccnc3ccc([N+](=O)[O-])cc23)cc1
Readout: CC50
Result: > 10 µM
--
Compound: CCOC(=O)/C(C#N)=C1\SS/C(=C(/C#N)C(=O)OCC)S1
Readout: CC50
Result: > 10 µM
--
Compound: COC1CC2\C=C(C)/C=C/C=C/C(=O)NC(c3ccccc3)C/C=C/CCC(O)CC(=O)C2=C1O (stereo not given)
Readout: CC50
Result: 2.08 µM
--
Compound: CCOC(=O)c1ccc(Nc2sc(C(=O)c3cccc([N+](=O)[O-])c3)c(N)c2C#N)cc1
Readout: CC50
Result: > 10 µM
--
Compound: O=C1N=C(Nc2nc3ccccc3[nH]2)c2ccccc21
Readout: CC50
Result: > 10 µM
--
Compound: O=[N+]([O-])c1cnc(Sc2ccncn2)s1
Readout: CC50
Result: > 10 µM
--
Compound: CN(C)c1ccc(/N=N/c2ccccn2)cc1
Readout: CC50
Result: > 10 µM
--
Compound: O=[N+]([O-])c1cc(F)c2cccnc2c1O
Readout: CC50
Result: > 10 µM
--
Compound: Cc1c2cc[n+](CCN3CCCCC3)cc2c(C)c2c1[nH]c1ccc(O)cc12
Readout: CC50
Result: > 10 µM
--
Compound: O=Cc1ccc(O)c2ncccc12
Readout: CC50
Result: > 10 µM
--
Compound: Cc1nc(/N=N/c2ccccc2)[nH]c1/N=N/c1ccccc1
Readout: CC50
Result: > 10 µM
--
Compound: COC1C(OC(=O)c2ccc(C)[nH]2)C(O)C(Oc2ccc3c(O)c(NC(=O)c4ccc(O)c(CC=C(C)C)c4)c(=O)oc3c2Cl)OC1(C)C (stereo not given)
Readout: CC50
Result: 9.55 µM
--
Compound: CCCCOc1ccc(/N=N\c2ccc(N)nc2N)cn1
Readout: CC50
Result: > 10 µM
--
Compound: Cc1cc2nc(CS)[nH]c2cc1C
Readout: CC50
Result: > 10 µM
--
Compound: CC1(C)CC(=O)CC(C)(C)N1O
Readout: CC50
Result: > 10 µM
--
Compound: O=[N+]([O-])c1ccc(Sc2cccc[n+]2[O-])c2nonc12
Readout: CC50
Result: 2.53 µM
--
Compound: Cc1ccc([S+]([O-])c2ccc([N+](=O)[O-])c3nonc23)cc1 (stereo not given)
Readout: CC50
Result: > 10 µM
--
Compound: O=Nc1c(-c2cccc([N+](=O)[O-])c2)nc2ncccn12
Readout: CC50
Result: > 10 µM
--
Compound: O=C(Nc1ccccc1)C1=C(Nc2ccccc2)CSC1
Readout: CC50
Result: > 10 µM
--
Compound: O=C1C=CC(=O)N1c1ccc(I)cc1Cl
Readout: CC50
Result: > 10 µM
--
Compound: C=Cc1cc(OC)c2c(c1)c(=O)oc1c2cc(OC)c2c(O)ccc(C3OC(C)C(O)C(C)(O)C3O)c21 (stereo not given)
Readout: CC50
Result: 1.85 µM
--
Compound: Cc1c(N2CCCC2)cc2c(c1NC(=O)c1ccccc1Cl)C(C)(C)CC2(C)C
Readout: CC50
Result: > 10 µM
--
Compound: SC1=NC2(CCCCCC2)NN1c1ccccc1
Readout: CC50
Result: > 10 µM
--
Compound: O=C(O)c1[nH]c(=O)[nH]c(=O)c1F
Readout: CC50
Result: > 10 µM
--
Compound: Cn1c(=S)c2nc(SCCN3CCCC3)[nH]c2n(C)c1=O
Readout: CC50
Result: > 10 µM
--
Compound: C/C(=N/NC(=S)N1CC2CCC(CC2)C1)c1cnccn1
Readout: CC50
Result: > 10 µM
--
Compound: COC(=O)C1(F)C(=O)NC(=O)NC1OC (stereo not given)
Readout: CC50
Result: > 10 µM
--
Compound: CC(C)c1ccc2c(c1)CCC1C(C)(CN)CCCC21C (stereo not given)
Readout: CC50
Result: 8.3 µM
--
Compound: Cn1ccc(=Nc2ccc(NC(=O)c3ccc(/N=c4\ccn(C)c5ccc([N+](=O)[O-])cc45)cc3)cc2)cc1
Readout: CC50
Result: > 10 µM
--
Compound: Clc1ccc(SCNc2ccccc2Cl)cc1
Readout: CC50
Result: > 10 µM
--
Compound: Nc1nc(N)c2c(ccc3[nH]ccc32)n1
Readout: CC50
Result: > 10 µM

* * *

System: HEK293
Assay Procedure: cells
Format: functional
Condition Summary: Homo sapiens, ATCC CRL1573, HEK293; ASSAY_TEST Inhibition of Cell Viability; detection method Resazurin; Fluorescence (ex560/em590); MEDIA DMEM with 10% FBS; plate type 384well; TC; CORNING #3712; time 18 hr
Form field: CC50 (one value per entry).

Structure Notation: Cn1c2ccccc2c2ccc3c(c21)C(=O)C=CC3=O
CC50: > 10 µM
//
Structure Notation: Oc1c(/N=N/c2nnn[nH]2)ccc2ccccc12
CC50: > 10 µM
//
Structure Notation: CN(C)c1n/c(=N/c2cccc(Cl)c2)ss1
CC50: > 10 µM

* * *

Tested on: HEK293
Assay Procedure: cells
Assay type: functional
Condition Summary: Homo sapiens, ATCC CRL1573, HEK293; ASSAY_TEST Inhibition of Cell Viability; detection method Resazurin; Fluorescence (ex560/em590); MEDIA DMEM with 10% FBS; plate type 384well; TC; CORNING #3712; time 18 hr
Form field: CC50 (one value per entry).

Compound: CC[C@@]1(O)C(=O)OCc2c1cc1n(c2=O)Cc2cc3c(NC(=O)CN)cccc3nc2-1
CC50: 0.6 µM
//
Compound: Nc1ccc(Cn2ccc3c4c(N)nc(N)nc4ccc32)cc1
CC50: > 10 µM
//
Compound: Cc1cc(N)c2cc(NC(=O)/C=C\c3ccccc3Cl)ccc2n1
CC50: 2.78 µM
//
Compound: O=C(O)C(=O)Nc1nc[nH]n1
CC50: > 10 µM
//
Compound: O=C(/C=C/c1cccnc1)c1ccccc1O
CC50: > 10 µM
//
Compound: Nc1nc(N)c2cc(Sc3ccc4ccccc4c3)ccc2n1
CC50: 4.64 µM
//
Compound: Nc1ccc(S(=O)(=O)Nc2cnc3ccccc3n2)cc1 [SULFAQUINOXALINE]
CC50: > 10 µM
//
Compound: Nc1ncnc2c1ncn2C1OC(COS(N)(=O)=O)C(O)C1O (stereo unspecified)
CC50: 0.227 µM
//
Compound: Sc1nc2ccc(Cl)cc2s1
CC50: > 10 µM
//
Compound: CNc1ncn(-c2c(C)cccc2C)c(=O)n1
CC50: > 10 µM
//
Compound: O=C(Nc1cccc(-c2nc3ccccc3[nH]2)c1)c1ccc(C(=O)Nc2cccc(-c3nc4ccccc4[nH]3)c2)cc1
CC50: > 10 µM
